Consider the following substances; for each one, report its MIC Pseudomonas sp.
test system: Pseudomonas sp (Pseudomonas aeruginosa); assay type: cell-based, Pseudomonas aeruginosa ATCC 15915
Ends that are not written are not given here.
Form field: result (number plus unit)

Example results:
# substance, MIC Pseudomonas sp
data = [
    ("GWKDKKSYRWFLQHRPQVGYIRVRFY-NH2 [HBP-4]", "0.8 µM"),
    ("HNLFRKLTHQLFRRNFGYTLRSV-NH2 [Peptide R10]", "0.8 µM"),
    ("HNLFRKLTHRLFRRNFGYTL-NH2 [HBP-5 [1–20]]", "0.4 µM"),
    ("RFYLSKKKWVMVP-NH2 [HBP-2]", "25 µM"),
    ("HNLFRKLTHRLFRQNFGYTLRSV-NH2 [Peptide R14]", "0.4 µM"),
]

Please report MIC Pseudomonas sp for every entry that follows.
1. HNLFRKLTHRLFRRNFGYTLRSV-NH2 [HBP-5]
2. FRFKRKLPKYLLF-NH2 [HBP-3]
3. HNLFRKLTAALFRANFGYTLRSV-NH2 [ΔCPC’]
4. RWHLTHRPKTGYIRVLVH-NH2 [HBP-1]

Result:
1. 0.8 µM
2. 6.3 µM
3. 1.6 µM
4. 3.1 µM

----------
test system: Escherichia coli; type: cell-based, Escherichia coli BW25113
Ends that are not written are not given here.
Note to self: use class 1 only for MBC E. coli readings below 2 µM; a reading exactly at 2 µM still gets class 0.

# substance, target-system, class-label
measured = [
    ("HNLFRKLTHRLFRRNFGYTLRSV-NH2 [HBP-5]", "Escherichia coli", "class 1"),
]

Ask: Regarding RWHLTHRPKTGYIRVLVH-NH2 [HBP-1] , kindly confirm whether its MBC E. coli is beneath 2 µM.
Result: class 1

Ask: Regarding FRFKRKLPKYLLF-NH2 [HBP-3] , kindly confirm whether its MBC E. coli is beneath 2 µM.
Result: class 0

Ask: Regarding RFYLSKKKWVMVP-NH2 [HBP-2] , kindly confirm whether its MBC E. coli is beneath 2 µM.
Result: class 0

Ask: Regarding GWKDKKSYRWFLQHRPQVGYIRVRFY-NH2 [HBP-4] , kindly confirm whether its MBC E. coli is beneath 2 µM.
Result: class 1

----------
Test system: Enterococcus faecium
Format: cell-based, Enterococcus faecium ATCC 19434
Method: Antimicrobial activities were determined by the microtiter broth dilution method recommended by the National Committee of Laboratory Safety and Standards (NCLSS), adapted for AMPs (Wiegand et al, [2008]). Briefly, overnight bacterial cell cultures were brought to an exponential growth state (OD600 = 0.4) in MH broth and diluted to a final concentration of 5 × 10^5 CFU/mL. […]
Ends that are not written are not given here.
measured-quantity: MBC E. faecium

# substance, MBC E. faecium
data = [
    ("RWHLTHRPKTGYIRVLVH-NH2 [HBP-1]", "≥100/ > 100 µM"),
    ("RFYLSKKKWVMVP-NH2 [HBP-2]", ">100/ > 100 µM"),
]

Ask: May I ask what MBC E. faecium has been recorded for FRFKRKLPKYLLF-NH2 [HBP-3] ?
Result: >100/ > 100 µM

----------
assay: in vitro; format: cell-based; conditions: human, MRC-5 cells
Ends that are not written are not given here.
measured-quantity: CC50 at 4 h

# substance, measured-value
measured = [
    ("FRFKRKLPKYLLF-NH2 [HBP-3]", "> 200 µM"),
    ("RFYLSKKKWVMVP-NH2 [HBP-2]", "> 200 µM"),
]

Now, please, on to the next substance.
Ask: May I ask what CC50 at 4 h has been recorded for RWHLTHRPKTGYIRVLVH-NH2 [HBP-1] ?
Result: > 200 µM
